Molecular target: adenosine A2a receptor (A2aR) (Homo sapiens (Human), UniProt P29274)
Sequence (P29274 whole entry): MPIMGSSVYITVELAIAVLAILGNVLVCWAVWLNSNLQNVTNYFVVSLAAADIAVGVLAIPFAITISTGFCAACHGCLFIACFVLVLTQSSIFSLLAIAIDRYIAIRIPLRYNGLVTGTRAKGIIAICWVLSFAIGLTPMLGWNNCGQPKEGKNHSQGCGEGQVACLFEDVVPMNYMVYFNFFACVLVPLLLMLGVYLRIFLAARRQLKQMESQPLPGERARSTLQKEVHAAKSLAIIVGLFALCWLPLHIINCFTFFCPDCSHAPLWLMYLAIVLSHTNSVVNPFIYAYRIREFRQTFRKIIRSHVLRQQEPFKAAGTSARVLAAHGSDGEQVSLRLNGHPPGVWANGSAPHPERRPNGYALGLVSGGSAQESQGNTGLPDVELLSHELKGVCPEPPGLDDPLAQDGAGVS
Assay: Inhibition of adenosine A2a receptor cAMP signaling pathway (HTRF cAMP, CHO-K1/A2aR cells)
Format: cell-based
Conditions: Table 1, ethyl carbazole 20 nM
Measurement name: log10 IC50 (log10 of the value in nM)
Hello, just confirming the data are log10 of IC50 with units of nM.

Observe how each entry below is paired with its result.
Cc1cc(-c2c(-c3ccccc3)nc(N)n3ccnc23)cc(C)n1; -0.03
Cc1cc(-c2c(-c3ccccc3F)nc(N)n3cnnc23)cc(C(F)F)n1; 0.23
COc1cc(-c2c(-c3ccccc3)nc(N)n3cnnc23)cc(C)n1; -0.49

Task item: Tell me log10 IC50 of Nc1nc(-c2ccccc2)c(-c2ccc3[nH]ncc3c2)c2nncn12 when tested on adenosine A2a receptor (A2aR) (Homo sapiens (Human), UniProt P29274).
Reply: -0.59

Task item: Tell me log10 IC50 of Cc1cc(-c2c(-c3ccc(C)o3)nc(N)n3cnnc23)cc(C(F)(F)F)n1 when tested on adenosine A2a receptor (A2aR) (Homo sapiens (Human), UniProt P29274).
Reply: -0.74

Task item: Tell me log10 IC50 of Cc1cc(-c2c(-c3ccccc3)nc(N)n3cnnc23)cc(C(F)(F)F)n1 when tested on adenosine A2a receptor (A2aR) (Homo sapiens (Human), UniProt P29274).
Reply: -0.64

Taken from patent US11312705B2.
